Where do these numbers come from? They come from ChEMBL document CHEMBL4402545.

Exercise: state measured Ki for each of the compounds provided.
- testSystem: Gamma-aminobutyric acid receptor subunit alpha-2 (Homo sapiens, UniProt P47869)
- Sequence (P47869 whole entry): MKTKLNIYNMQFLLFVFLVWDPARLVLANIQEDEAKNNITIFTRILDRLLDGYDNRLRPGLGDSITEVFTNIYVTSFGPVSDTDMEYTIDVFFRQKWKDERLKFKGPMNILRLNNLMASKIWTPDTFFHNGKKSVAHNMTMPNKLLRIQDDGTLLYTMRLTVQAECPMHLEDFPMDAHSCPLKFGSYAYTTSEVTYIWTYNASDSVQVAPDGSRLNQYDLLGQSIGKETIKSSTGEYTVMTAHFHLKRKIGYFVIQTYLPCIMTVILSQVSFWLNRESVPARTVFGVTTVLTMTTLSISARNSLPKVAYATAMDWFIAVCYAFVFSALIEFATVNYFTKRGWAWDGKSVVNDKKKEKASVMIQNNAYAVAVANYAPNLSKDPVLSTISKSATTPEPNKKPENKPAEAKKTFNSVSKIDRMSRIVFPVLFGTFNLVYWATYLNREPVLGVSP
- testDescription: Binding affinity to GABA-A alpha2 (unknown origin)
A number alone suffices; assume nM.

Return reported Ki. Input compound: c1ccc(-c2nnc3c4c(c(OCc5ccccn5)nn23)C2CCC4CC2)cc1
26

Provide measured Ki value, entry: COCc1ncn2c1CN(C)C(=O)c1cc(Cl)ccc1-2
180

Look up Ki of FC(F)c1ncn2c1Cn1ncnc1-c1cc(Br)ccc1-2 and report it.
185

Determine its reported Ki: C#Cc1ccc2c(c1)C(c1ccccc1F)=N[C@H](C)c1c(C(=O)NC)ncn1-2
360

---

- testSystem: Gamma-aminobutyric acid receptor subunit alpha-1 (Homo sapiens, UniProt P14867)
- Sequence (P14867 whole entry): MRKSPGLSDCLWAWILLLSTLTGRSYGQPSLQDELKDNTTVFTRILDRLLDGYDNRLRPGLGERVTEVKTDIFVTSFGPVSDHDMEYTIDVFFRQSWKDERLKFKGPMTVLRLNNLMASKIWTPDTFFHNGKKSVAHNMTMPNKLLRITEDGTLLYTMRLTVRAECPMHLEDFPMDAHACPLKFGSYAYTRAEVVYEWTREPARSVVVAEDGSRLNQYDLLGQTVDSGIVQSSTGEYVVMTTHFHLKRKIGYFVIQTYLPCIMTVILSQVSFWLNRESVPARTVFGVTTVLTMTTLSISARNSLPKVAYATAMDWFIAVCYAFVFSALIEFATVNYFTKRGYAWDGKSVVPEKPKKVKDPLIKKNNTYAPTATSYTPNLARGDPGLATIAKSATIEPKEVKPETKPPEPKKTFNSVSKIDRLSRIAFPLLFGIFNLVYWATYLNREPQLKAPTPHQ
- testDescription: Binding affinity to GABA-A alpha1 (unknown origin)
For each entry below, report its Ki value.
# output: number + unit

Given COCc1ncn2c1CN(C)C(=O)c1cc(Cl)ccc1-2 , respond with its Ki.
362 nM

Fill in Ki for record Clc1ccc2c(c1)-c1ncnn1Cc1c(Cl)ncn1-2
15 nM

Return Ki (reported value) for this compound: C#Cc1ccc2c(c1)C(c1ccccc1F)=N[C@H](C)c1c(C(=O)NC3CC3)ncn1-2
542 nM

Indicate the recorded Ki value for this compound: Cc1cc(-c2nnc3c4ccccc4c(OCc4cn(C)nn4)nn23)no1
0.88 nM

---

- testSystem: Gamma-aminobutyric acid receptor subunit alpha-1 (Homo sapiens, UniProt P14867)
- testDescription: Binding affinity to GABA-A alpha1 (unknown origin)
Values of Ki strictly less than 70 nM map to fulfilled, and values of at least 70 nM map to not fulfilled.

Given C#Cc1ccc2c(c1)C(c1ccccc1F)=N[C@H](C)c1c(C(=O)N(C)C)ncn1-2 , is recorded Ki strictly lower than 70 nM?
not fulfilled

Please state whether Ki is below 70 nM for Cc1onc(-c2ccc(F)cc2)c1COc1ccc(C(=O)N2CCS(=O)(=O)CC2)cn1
not fulfilled

Does the reported Ki of Cc1c(F)c(Nc2ccc(-c3cn(C)cn3)cn2)cc2c1ncn2CC1CC1 stay below 70 nM?
not fulfilled

I'd appreciate it if you could check whether Cc1cc(-c2nncc3c(C(C)(C)C)c(OCc4ncnn4C)nn23)no1 has Ki smaller than 70 nM.
fulfilled

is_below(Ki, 70 nM) for C#Cc1ccc2c(c1)C(c1ccccc1F)=N[C@H](C)c1c(C(=O)NC)ncn1-2 ?
not fulfilled

Item CCCNC(=O)c1nnc2c(-c3cc(OC)ccc3OC)cccc2c1N : Ki beneath 70 nM, strictly?
fulfilled

Does this molecule meet the criterion Ki < 70 nM? CC(C)(O)c1cnn2c(-c3ccc(F)c(-c4c(F)cccc4C#N)c3)cnc2n1
fulfilled

In the record for FC(F)c1ncn2c1Cn1ncnc1-c1cc(Br)ccc1-2 , is Ki less than 70 nM?
not fulfilled

---

- testDescription: Half life in human at 0.04 to 100 mg, po
- Format: ADME
- conditionParameters: in vivo
quantityName: half-life

Specify reported half-life for the molecule shown: CCn1cnc2c(-c3ccc(F)c(-c4ccc(S(=O)(=O)CC)cc4OC)c3)cnnc21
6 to 8.9 h

---

For each entry below, report its Ratio Ki value.
- Species on record: Homo sapiens
- testDescription: Selectivity ratio of Ki for binding affinity to GABAA alpha3beta3gamma2 (unknown origin) to Ki for binding affinity to GABAA alpha5beta3gamma2 (unknown origin)

For the compound COCc1ncn2c1CN(C)C(=O)c1cc(Cl)ccc1-2 , give its reported Ratio Ki.
30 to 60

Write down Ratio Ki measured for item C#Cc1ccc2c(c1)C(c1ccccc1F)=N[C@H](C)c1c(C(=O)NC3CC3)ncn1-2
6 to 15

State its Ratio Ki: C#Cc1ccc2c(c1)C(c1ccccc1F)=N[C@H](C)c1c(C(=O)N(C)C)ncn1-2
6 to 15

Give reported Ratio Ki value for CCOC(=O)c1ncn2c1[C@@H]1CCCN1C(=O)c1cc(OC)ccc1-2
50 to 100

---

- testSystem: GABA-A receptor; alpha-1/beta-3/gamma-2 (Homo sapiens, UniProt P14867+P18507+P28472)
- testDescription: Displacement of [3H]-flumazenil from human GABAA alpha1beta3gamma2 expressed in Ltk cells
- Type: cell-based
I'd be grateful if you could share measured pKi for these entries.
// field semantics: pKi = negative decimal log of concentration (mol/L)

Note down pKi recorded for Cn1ncnc1COc1nn2c(-c3c(F)cccc3F)nnc2cc1C1CCC1
9.66

Check the records and state pKi for Cn1ncnc1COc1nn2c(-c3cc(F)ccc3F)nnc2cc1C(C)(C)C
9.10

---

- Species on record: Homo sapiens
- testDescription: Selectivity ratio of Ki for binding affinity to GABAA alpha1beta3gamma2 (unknown origin) to Ki for binding affinity to GABAA alpha5beta3gamma2 (unknown origin)
quantityName: Ratio Ki

Determine from records and report Ratio Ki for C#Cc1ccc2c(c1)C(c1ccccc1F)=N[C@H](C)c1c(C(=O)NC3CC3)ncn1-2
6 to 15

Report measured Ratio Ki; entry is C#Cc1ccc2c(c1)C(c1ccccc1F)=N[C@H](C)c1c(C(=O)N(C)C)ncn1-2
6 to 15

Identify Ratio Ki associated with the molecule CCOC(=O)c1ncn2c1[C@@H]1CCCN1C(=O)c1cc(OC)ccc1-2
50 to 100

Identify Ratio Ki associated with the molecule COCc1ncn2c1CN(C)C(=O)c1cc(Cl)ccc1-2
30 to 60

---

- Species: Homo sapiens
- testDescription: Selectivity ratio of Ki for binding affinity to GABAA alpha2beta3gamma2 (unknown origin) to Ki for binding affinity to GABAA alpha5beta3gamma2 (unknown origin)
So I've got a bunch of compounds here, and I need their Ratio Ki values.

Return Ratio Ki (reported value) for this compound: CCOC(=O)c1ncn2c1[C@@H]1CCCN1C(=O)c1cc(OC)ccc1-2
50 to 100

Please indicate Ratio Ki recorded for C#Cc1ccc2c(c1)C(c1ccccc1F)=N[C@H](C)c1c(C(=O)N(C)C)ncn1-2
6 to 15

Could you please provide reported Ratio Ki for C#Cc1ccc2c(c1)C(c1ccccc1F)=N[C@H](C)c1c(C(=O)NC3CC3)ncn1-2 ? Thanks!
6 to 15

Let me know recorded Ratio Ki for COCc1ncn2c1CN(C)C(=O)c1cc(Cl)ccc1-2 , thanks.
30 to 60

---

- testSystem: GABA-A receptor; alpha-5/beta-3/gamma-2 (Homo sapiens, UniProt P18507+P28472+P31644)
- Sequence (P18507 whole entry): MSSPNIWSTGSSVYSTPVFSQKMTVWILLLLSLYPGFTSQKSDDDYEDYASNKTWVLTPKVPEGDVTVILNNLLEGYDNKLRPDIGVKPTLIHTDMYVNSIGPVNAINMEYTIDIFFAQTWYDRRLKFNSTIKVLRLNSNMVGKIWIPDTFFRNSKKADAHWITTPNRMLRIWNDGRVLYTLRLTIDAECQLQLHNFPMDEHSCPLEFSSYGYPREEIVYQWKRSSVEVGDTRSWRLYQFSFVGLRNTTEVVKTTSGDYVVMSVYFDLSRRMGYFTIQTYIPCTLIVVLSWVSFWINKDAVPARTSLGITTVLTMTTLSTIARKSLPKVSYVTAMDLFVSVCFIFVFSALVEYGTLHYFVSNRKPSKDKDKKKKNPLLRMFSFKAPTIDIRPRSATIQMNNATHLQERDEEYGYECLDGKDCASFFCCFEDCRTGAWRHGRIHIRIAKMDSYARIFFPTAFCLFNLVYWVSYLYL
- Sequence (P28472 whole entry): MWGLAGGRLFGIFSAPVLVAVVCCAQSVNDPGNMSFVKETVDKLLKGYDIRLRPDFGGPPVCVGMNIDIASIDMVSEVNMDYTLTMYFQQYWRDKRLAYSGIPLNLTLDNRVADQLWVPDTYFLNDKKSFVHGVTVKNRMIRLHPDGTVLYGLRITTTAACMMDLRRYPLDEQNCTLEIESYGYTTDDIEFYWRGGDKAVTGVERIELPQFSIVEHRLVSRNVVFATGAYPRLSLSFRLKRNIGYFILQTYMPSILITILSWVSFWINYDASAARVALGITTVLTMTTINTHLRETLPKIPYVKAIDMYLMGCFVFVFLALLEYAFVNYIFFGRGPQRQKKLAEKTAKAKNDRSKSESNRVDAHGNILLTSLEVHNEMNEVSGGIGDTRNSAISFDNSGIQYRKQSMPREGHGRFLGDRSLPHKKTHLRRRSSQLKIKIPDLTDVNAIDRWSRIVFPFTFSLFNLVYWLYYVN
- Sequence (P31644 whole entry): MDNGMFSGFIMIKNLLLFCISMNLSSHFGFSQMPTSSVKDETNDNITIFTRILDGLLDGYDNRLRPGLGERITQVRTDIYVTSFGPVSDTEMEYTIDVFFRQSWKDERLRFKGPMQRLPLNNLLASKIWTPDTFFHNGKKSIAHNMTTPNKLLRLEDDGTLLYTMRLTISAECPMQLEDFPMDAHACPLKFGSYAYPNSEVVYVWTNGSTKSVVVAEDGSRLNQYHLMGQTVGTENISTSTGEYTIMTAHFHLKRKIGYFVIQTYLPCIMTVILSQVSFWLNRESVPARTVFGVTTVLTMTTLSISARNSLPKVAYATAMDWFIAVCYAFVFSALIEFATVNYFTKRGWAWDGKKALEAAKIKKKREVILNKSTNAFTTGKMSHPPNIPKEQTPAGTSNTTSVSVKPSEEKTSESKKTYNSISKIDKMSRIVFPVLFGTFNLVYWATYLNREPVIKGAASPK
- testDescription: Displacement of [3H]-Ro15-1788 from human GABAA alpha5beta3gamma2 expressed in HEK293 cell membranes incubated for 40 or 90 mins by liquid scintillation counting method
quantityName: pKi
In plain terms, pKi is the concentration in mol/L turned into minus its base-10 logarithm.

Note pKi for the molecule shown: CC(C)(O)c1ccc2c(c1)ncn2-c1cccc(-c2ccccc2C#N)c1
9.92

---

Please respond with reported log10(Ki) for every item in the list.
- testSystem: Gamma-aminobutyric acid receptor subunit alpha-3 (Homo sapiens, UniProt P34903)
- Sequence (P34903 whole entry): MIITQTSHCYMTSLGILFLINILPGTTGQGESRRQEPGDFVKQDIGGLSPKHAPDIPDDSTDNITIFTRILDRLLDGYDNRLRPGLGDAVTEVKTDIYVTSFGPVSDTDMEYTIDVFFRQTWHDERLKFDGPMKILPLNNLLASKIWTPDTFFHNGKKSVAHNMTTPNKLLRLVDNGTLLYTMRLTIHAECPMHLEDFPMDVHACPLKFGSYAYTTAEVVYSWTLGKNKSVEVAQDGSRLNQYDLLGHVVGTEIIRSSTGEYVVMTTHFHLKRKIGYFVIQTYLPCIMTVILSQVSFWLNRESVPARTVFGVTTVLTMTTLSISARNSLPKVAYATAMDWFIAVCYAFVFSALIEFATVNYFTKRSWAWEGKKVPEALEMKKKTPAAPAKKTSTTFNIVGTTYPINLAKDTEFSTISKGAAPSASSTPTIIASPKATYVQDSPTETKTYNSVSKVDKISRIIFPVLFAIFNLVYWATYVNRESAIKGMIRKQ
- testDescription: Binding affinity to GABA-A alpha3 (unknown origin)
Please note: log10 values; quantity Ki; unit nM.

Tell me log10(Ki) of COCc1ncn2c1CN(C)C(=O)c1cc(Cl)ccc1-2 when tested on Gamma-aminobutyric acid receptor subunit alpha-3 (Homo sapiens, UniProt P34903).
2.52

Find the measured log10(Ki) of Cc1onc(-c2ccc(F)cc2)c1COc1ccc(C(=O)N2CCS(=O)(=O)CC2)cn1 with Gamma-aminobutyric acid receptor subunit alpha-3 (Homo sapiens, UniProt P34903) as test system.
2.69

Name the value of log10(Ki) reported for FC(F)c1ncn2c1Cn1ncnc1-c1cc(Br)ccc1-2 when tested on Gamma-aminobutyric acid receptor subunit alpha-3 (Homo sapiens, UniProt P34903).
1.90

Tell me log10(Ki) of C#Cc1ccc2c(c1)C(c1ccccc1F)=N[C@H](C)c1c(C(=O)N(C)C)ncn1-2 when tested on Gamma-aminobutyric acid receptor subunit alpha-3 (Homo sapiens, UniProt P34903).
4.80

Specify the recorded log10(Ki) for CCCNC(=O)c1nnc2c(-c3cc(OC)ccc3OC)cccc2c1N , system: Gamma-aminobutyric acid receptor subunit alpha-3 (Homo sapiens, UniProt P34903).
0.49

For Gamma-aminobutyric acid receptor subunit alpha-3 (Homo sapiens, UniProt P34903), give log10(Ki) of the listed compound: CC(C)(O)c1cnn2c(-c3ccc(F)c(-c4c(F)cccc4C#N)c3)cnc2n1
0.26

Provide log10(Ki), system Gamma-aminobutyric acid receptor subunit alpha-3 (Homo sapiens, UniProt P34903), entry C#Cc1ccc2c(c1)C(c1ccccc1F)=N[C@H](C)c1c(C(=O)NC)ncn1-2
2.82

Enter recorded log10(Ki) with Gamma-aminobutyric acid receptor subunit alpha-3 (Homo sapiens, UniProt P34903) for Cc1c(F)c(Nc2ccc(-c3cn(C)cn3)cn2)cc2c1ncn2CC1CC1 here.
1.38

State log10(Ki) on Gamma-aminobutyric acid receptor subunit alpha-3 (Homo sapiens, UniProt P34903). Entry: Cc1cc(-c2nncc3c(C(C)(C)C)c(OCc4ncnn4C)nn23)no1
-0.11

Under Gamma-aminobutyric acid receptor subunit alpha-3 (Homo sapiens, UniProt P34903), report log10(Ki) for C#Cc1ccc2c(c1)C(c1ccccc1F)=N[C@H](C)c1c(C(=O)NC3CC3)ncn1-2
2.68

Lab note: record log10(Ki) of Clc1ccc2c(c1)-c1ncnn1Cc1c(Cl)ncn1-2 tested on Gamma-aminobutyric acid receptor subunit alpha-3 (Homo sapiens, UniProt P34903).
1.15
